# credit: patent US4753953A

Tested on: C. perfringens KYA 13123
Test: microbe, parasite or virus in culture
Type: cell-based
Conditions: Clostridium perfringens, KYA13123
Binarize MIC at 0.2 µg/mL; below is satisfied, at or above is not satisfied.

Check out these entries, answers already filled in.
C[C@H]1CN(c2c(F)cc3c(=O)c(C(=O)O)cn(C4CC4)c3c2Cl)C[C@H]1N (relative stereo) [Example 16]	satisfied
CC1CN(c2c(F)cc3c(=O)c(C(=O)O)cn(C4CC4)c3c2F)CC1N.Cl (stereo not drawn) [Example 11]	not satisfied
C[C@H]1CN(c2cc3c(cc2F)c(=O)c(C(=O)O)cn3C2CC2)C[C@H]1N (relative stereo) [Example 33]	not satisfied
CCNCC1CN(c2c(F)cc3c(=O)c(C(=O)O)cn(C4CC4)c3c2Cl)CC1C (stereo not drawn) [Example 14]	satisfied
CNCC1CN(c2c(F)cc3c(=O)c(C(=O)O)cn(C4CC4)c3c2Cl)CC1C (stereo not drawn) [Example 12]	satisfied

Challenge: Find out if reported MIC for CCNCC1CN(c2c(F)cc3c(=O)c(C(=O)O)cn(C4CC4)c3c2F)CC1C (stereo not drawn) [Example 15] is less than 0.2 µg/mL
Response given: satisfied

Challenge: In plain terms, does CCn1cc(C(=O)O)c(=O)c2cc(F)c(N3C[C@@H](N)[C@@H](C)C3)c(F)c21 (relative stereo) [Example 22] come in under 0.2 µg/mL for MIC?
Response given: not satisfied
